Recorded measurements of pest or weed control at 35 g/ha, one per entry
- System: Key Grass and Sedge Weeds as well as Grass Crops
- experimentNotes: Post-Emergent Test II: postemergent herbicidal activity, visual rating after 14 d (Table 8)
- Type: in vivo
- details: post-emergence, 336 h, barnyardgrass (Echinochloa crus-galli), 35 g ai/ha, read-out: Visual Growth Reduction (%) 14 Days After Application, ECHCG
observedProperty: pest or weed control at 35 g/ha

compound	systemTested	result
COC(=O)c1nc(-c2ccc(F)c3c2OC(F)(F)O3)cc(N)c1Cl [Compound 88]	Key Grass and Sedge Weeds as well as Grass Crops	0 to 29%
COC(=O)c1nc(-c2cccc3c2OC(F)(F)O3)cc(N)c1Cl [Compound 84]	Key Grass and Sedge Weeds as well as Grass Crops	0 to 29%
COC(=O)c1nc(-c2ccc(F)c3c2OCO3)nc(N)c1OC [Compound 97]	Key Grass and Sedge Weeds as well as Grass Crops	0 to 29%
COC(=O)c1nc(-c2c(F)ccc3c2OC(F)(F)O3)cc(N)c1Cl [Compound 90]	Key Grass and Sedge Weeds as well as Grass Crops	0 to 29%
COC(=O)c1nc(-c2ccc(Cl)c3c2OC(F)(F)O3)nc(N)c1OC [Compound 95]	Key Grass and Sedge Weeds as well as Grass Crops	0 to 29%
COC(=O)c1nc(-c2ccc3c(c2)SCO3)c(F)c(N)c1Cl [Compound 105]	Key Grass and Sedge Weeds as well as Grass Crops	45 to 59%
COC(=O)c1nc(-c2ccc3c(c2)COC3)c(F)c(N)c1Cl [Compound 103]	Key Grass and Sedge Weeds as well as Grass Crops	0 to 29%
COC(=O)c1nc(-c2ccc(F)c3c2OCO3)c(F)c(N)c1Cl [Compound 83]	Key Grass and Sedge Weeds as well as Grass Crops	0 to 29%
COc1c(N)nc(-c2ccc(Cl)c3c2OC(F)(F)O3)nc1C(=O)O [Compound 96]	Key Grass and Sedge Weeds as well as Grass Crops	0 to 29%
COC(=O)c1nc(-c2ccc(Cl)c3c2OC(F)(F)O3)c(C)c(N)c1Cl [Compound 94]	Key Grass and Sedge Weeds as well as Grass Crops	0 to 29%
Nc1c(F)c(-c2ccc3c(c2)OCC3)nc(C(=O)O)c1Cl [Compound 101]	Key Grass and Sedge Weeds as well as Grass Crops	60 to 74%
COC(=O)c1nc(-c2cccc3c2OCO3)cc(N)c1Cl [Compound 93]	Key Grass and Sedge Weeds as well as Grass Crops	0 to 29%
COC(=O)c1nc(-c2cccc3c2OCO3)nc(N)c1OC [Compound 98]	Key Grass and Sedge Weeds as well as Grass Crops	0 to 29%
COC(=O)c1nc(-c2ccc(Cl)c3c2OC(F)(F)O3)cc(N)c1Cl [Compound 86]	Key Grass and Sedge Weeds as well as Grass Crops	0 to 29%
COC(=O)c1nc(-c2ccc3c(c2)OCC3)c(F)c(N)c1Cl [Compound 100]	Key Grass and Sedge Weeds as well as Grass Crops	45 to 59%
COC(=O)c1nc(-c2cccc3c2OC(F)(F)O3)nc(N)c1OC [Compound 99]	Key Grass and Sedge Weeds as well as Grass Crops	0 to 29%
Nc1cc(-c2ccc(F)c3c2OC(F)(F)O3)nc(C(=O)O)c1Cl [Compound 89]	Key Grass and Sedge Weeds as well as Grass Crops	0 to 29%
COC(=O)c1nc(-c2cccc3c2OCC3)c(F)c(N)c1Cl [Compound 102]	Key Grass and Sedge Weeds as well as Grass Crops	0 to 29%
Nc1cc(-c2c(F)ccc3c2OC(F)(F)O3)nc(C(=O)O)c1Cl [Compound 91]	Key Grass and Sedge Weeds as well as Grass Crops	0 to 29%

---

Recorded measurements of pest or weed control at 35 g/ha, one per entry
- System: Key Broadleaf Weed and Crop Species
- experimentNotes: Post-Emergent Test II: postemergent herbicidal activity, visual rating after 14 d (Table 7)
- Assay type: in vivo
- details: post-emergence, 336 h, redroot pigweed (Amaranthus retroflexus), 35 g ai/ha, read-out: Visual Growth Reduction (%) 14 Days After Application AMARE
observedProperty: pest or weed control at 35 g/ha

C=Cc1c(C(=O)OC)nc(-c2cc3c(cc2F)OC(F)(F)O3)c(F)c1N 0 to 29%
COC(=O)c1nc(-c2cc3c(cc2F)OC(F)(F)O3)cc(N)c1Cl 0 to 29%
COC(=O)c1nc(-c2cc3c(cc2F)OCO3)c(F)c(N)c1Cl 85 to 94%
Nc1cc(-c2cc3c(cc2F)OC(F)(F)O3)nc(C(=O)O)c1Cl 95 to 100%
COC(=O)c1nc(-c2ccc3c(c2)OC(F)(F)O3)nc(N)c1OC 0 to 29%
COC(=O)c1nc(-c2ccc3c(c2)OC(F)(F)O3)nc(N)c1Cl 0 to 29%
COC(=O)c1nc(-c2ccc3c(c2)OC(F)(F)O3)c(C)c(N)c1Cl 0 to 29%

---

Recorded measurements of pest or weed control at 140 g/ha, one per entry
- Tested on: Key Grass and Sedge Weeds as well as Grass Crops
- experimentNotes: Post-Emergent Test II: postemergent herbicidal activity, visual rating after 14 d (Table 8)
- Type: in vivo
- details: post-emergence, 336 h, maize, corn (Zea mays), 140 g ai/ha, read-out: Visual Growth Reduction (%) 14 Days After Application ZEAMX
observedProperty: pest or weed control at 140 g/ha

COC(=O)c1nc(-c2cc3c(cc2F)OC(F)(F)O3)nc(N)c1OC 75 to 84%
COC(=O)c1nc(-c2cccc3c2OC(F)(F)O3)c(F)c(N)c1Cl 0 to 29%
COC(=O)c1nc(-c2cc(F)c3c(c2)OC(F)(F)O3)c(F)c(N)c1Cl 60 to 74%
COC(=O)c1nc(-c2ccc3c(c2F)OC(F)(F)O3)nc(N)c1Cl 75 to 84%
COC(=O)c1nc(-c2cc3c(cc2F)OCO3)nc(N)c1OC 0 to 29%
COC(=O)c1nc(-c2ccc(I)c3c2OC(F)(F)O3)c(F)c(N)c1Cl 0 to 29%
C=Cc1c(C(=O)OC)nc(-c2cc3c(cc2F)OCO3)c(F)c1N 45 to 59%
COc1c(N)nc(-c2cc3c(cc2F)OC(F)(F)O3)nc1C(=O)O 75 to 84%
Nc1c(Cl)c(C(=O)O)nc(-c2cc3c(cc2F)OC(F)(F)O3)c1Cl 0 to 29%

---

Recorded measurements of GR20 ORYSJ, one per entry
- Test system: Direct Seeded Rice and weed species
- experimentNotes: Postemergence herbicidal activity in direct seeded rice, visual rating after 20-22 days and probit GR20/GR50/GR80/GR90 (Table 14)
- Assay type: in vivo
- details: ORYSJ (Oryza sativa, rice crop); probit analysis, dose for 20 percent growth reduction

compound	GR20 ORYSJ
COC(=O)c1nc(-c2ccc3c(c2F)OC(F)(F)O3)cc(N)c1Cl [Compound 37]	56 g ai/ha
Nc1cc(-c2cc3c(cc2F)OC(F)(F)O3)nc(C(=O)O)c1Cl [Compound 42]	1 g ai/ha
COc1c(C(=O)O)nc(-c2ccc3c(c2)OC(F)(F)O3)c(F)c1N [Compound 25]	1 g ai/ha
COC(=O)c1nc(-c2ccc3c(c2F)OC(F)(F)O3)c(F)c(N)c1Cl [Compound 10]	14 g ai/ha
COc1c(N)nc(-c2ccc3c(c2F)OC(F)(F)O3)nc1C(=O)O [Compound 66]	2 g ai/ha
Nc1c(F)c(-c2ccc3c(c2F)OC(F)(F)O3)nc(C(=O)O)c1Cl [Compound 11]	8 g ai/ha
Nc1c(F)c(-c2cc3c(cc2F)OC(F)(F)O3)nc(C(=O)O)c1Cl [Compound 13]	6 g ai/ha
Nc1cc(-c2ccc3c(c2F)OC(F)(F)O3)nc(C(=O)O)c1Cl [Compound 41]	1 g ai/ha

---

Recorded measurements of pest or weed control at 140 g/ha, one per entry
- System: Key Broadleaf Weed and Crop Species
- experimentNotes: Post-Emergent Test II: postemergent herbicidal activity, visual rating after 14 d (Table 7)
- Type: in vivo
- details: post-emergence, 336 h, sunflower (Helianthus annuus), 140 g ai/ha, read-out: Visual Growth Reduction (%) 14 Days After Application HELAN
observedProperty: pest or weed control at 140 g/ha

Cc1c(-c2cc(N)c(Cl)c(C(=O)O)n2)ccc2c1OC(F)(F)O2 85 to 94%
COC(=O)c1nc(-c2ccc3c(c2F)OC(F)(F)O3)c(Cl)c(N)c1Cl 60 to 74%
COc1c(N)nc(-c2ccc3c(c2)OC(F)(F)O3)nc1C(=O)O 85 to 94%
COC(=O)c1nc(-c2ccc3c(c2F)OC(F)(F)O3)cc(N)c1Cl 75 to 84%
Nc1cc(-c2ccc3c(c2F)OC(F)(F)O3)nc(C(=O)O)c1Cl 60 to 74%
COc1c(N)nc(-c2cc3c(cc2F)OC(F)(F)O3)nc1C(=O)O 60 to 74%
Nc1c(F)c(-c2cc3c(cc2F)OC(F)(F)O3)nc(C(=O)O)c1Cl 85 to 94%
COC(=O)c1nc(-c2ccc3c(c2)OC(F)(F)O3)nc(N)c1OC 95 to 100%
COC(=O)c1nc(-c2ccc(Cl)c3c2OC(F)(F)O3)c(F)c(N)c1Cl 95 to 100%
